Entry source: the supplement of paper PMC7877785

# assayOverview: self-splicing fitness, log relative to wild type (ln ratio); higher = more splicing; Tetrahymena group I intron in knt gene, E. coli kanamycin selection, DiMSum; sequences stand for … in CUCUCU…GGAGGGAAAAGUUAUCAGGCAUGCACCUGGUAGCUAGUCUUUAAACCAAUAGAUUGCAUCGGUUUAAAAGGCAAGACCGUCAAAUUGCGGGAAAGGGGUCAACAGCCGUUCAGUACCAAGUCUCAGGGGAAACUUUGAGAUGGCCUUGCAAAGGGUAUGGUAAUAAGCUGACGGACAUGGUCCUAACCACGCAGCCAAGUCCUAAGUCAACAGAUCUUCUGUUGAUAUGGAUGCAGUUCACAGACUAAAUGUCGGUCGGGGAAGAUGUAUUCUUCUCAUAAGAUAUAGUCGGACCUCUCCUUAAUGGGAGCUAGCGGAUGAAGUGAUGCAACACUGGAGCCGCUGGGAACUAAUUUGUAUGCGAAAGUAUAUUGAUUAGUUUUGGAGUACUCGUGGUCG;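 further: selection with 25 µg/mL kanamycin versus none on LB agar overnight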
# assayContext: 30 °C
Listed here are sequences together with their documented self-splicing fitness (ln).

Completed entries (count: 5):
In [3]: df
Out[3]:
           residuecodes  measurement
0  CAGCAGCAAUAUUACGCACG       -0.667
1  CGGUAGCAAUAUUACGUCAA        -1.08
2  GACGAGCAAUAUUACGGUGC        -2.72
3  GAUAAGCAAUAUUACGGACG        -1.08
4  UCUGAGCAAUAUUACGUCAU        -3.81

Given AAGCAGCAAUAUUACGUACG , state its recorded self-splicing fitness (ln).
-2.18
